System: P. falciparum 3D7 growth, pLDH absorbance
Experiment: blood-stage malaria parasite growth potency – strain 3D7, dose response (AID 2305)
PROPERTY NAME: log10 IC50 (log10 of the value in nM)
All values: log10 IC50 [nM].

Examples with answers:
Entry "CCOC(=O)c1ccc(N2CCN(c3cc(C)ccc3C)CC2)c(NC(=O)Nc2ccc(Cl)c(Cl)c2)c1" ; log10 IC50 = 2.85

Documented log10 IC50 of "O=[N+]([O-])c1cccc(CNCC2CCN(Cc3ccc(C(F)(F)F)cc3)CC2)c1" : 2.40

Summary for this compound, O=C(/C=C/c1ccc(Cl)c(Cl)c1)NCC(CCCN1CCC(c2c[nH]c3ccccc23)CC1)c1ccccc1 (stereo not drawn) : log10 IC50 is 2.91

Field: log10 IC50. Fill in for each record below.
1. CCOc1cc(C(=O)Nc2ccc3nc(N4CCCCC4)cc(C)c3c2)cc(OCC)c1OCC
2. CN(C)c1ccc2c(c1)Sc1cc(N(C)C)ccc1N2C(=O)CCCC(=O)O
3. Cc1ccc(F)c(CN2CCC(N3CC(c4ccccc4)(c4ccccc4)OC3=O)CC2)c1Cl
4. COc1cc(CC2c3cc(O)c(Cl)cc3CCN2C)c(OC)cc1C (stereo not drawn)

Data returned:
1. 2.91
2. 2.90
3. 2.77
4. 2.85

Items follow; give log10 IC50 for each.
1. Cc1ccc(O)cc1Nc1ccnc2cc(-c3ccncc3)ccc12
2. CCOC(=O)c1c(CNc2ccncc2)n(C)c2cc(Br)c(OC(C)=O)cc12
3. N#Cc1ccc(CN2CCC(Oc3ccc(NC(=O)c4cccs4)cc3)C2)cc1 (stereo not drawn)
4. CCc1ccc(CN2CCC(NC(=O)c3cc(-c4ccc(N(C)C)cc4)cs3)C2)cc1 (stereo not drawn)
5. CC1(C)CC(NC(=O)NC2CCN(Cc3ccccc3)CC2)CC(C)(CNC(=O)NC2CCN(Cc3ccccc3)CC2)C1 (stereo not drawn)
6. CCC(CC)NCc1c(O)ccc2c(CNC(CC)CC)c(O)ccc12
7. CC(C)N1CCN(C(CN2CCN(CCCOc3ccc4ccccc4c3)CC2)c2ccc(F)cc2)CC1 (stereo not drawn)

Data returned:
[2.86, 2.57, 2.98, 3.16, 2.98, 2.59, 2.76]

* * *

Record form. Attribute: IC50. Fill in for each entry.
Test system: P. falciparum 3D7 growth, pLDH absorbance
Test: blood-stage malaria parasite growth potency – strain 3D7, dose response (AID 2305)
Answers are plain numbers, in nM.

Observe how each entry below is paired with its result.
In plain terms, "Cc1ccc(OC2CCN(c3ccc(C(=O)NC4CC4)cn3)CC2)cc1" has a documented IC50 of 1300

# IC50 of "Cc1ccc(NC(=O)c2ccc(CN3CCCN(Cc4cccc(O)c4)CC3)cc2)cc1C" = 860

For every item in the list below, what is its measured IC50?
1. CN(C)CCOc1ccc2[nH]c(-c3cccc(OCc4ccccc4)c3)nc2c1C#N
2. CCCCCCN1CCCN(Cc2ccc(C(=O)Nc3ccc(F)c(F)c3)cc2)CC1
3. Cc1noc(C)c1-c1cccc(C(=O)NC2CCN(CCNC(=O)C(c3ccccc3)c3ccccc3)CC2)c1
4. CN(CCN)Cc1ccc(-c2ccc(-c3nc4ccc(F)cc4[nH]3)s2)cc1
5. COc1ccc2c(c1)c(C1CCN(CCCCNC(=O)c3ccc(-c4ccc(C(F)(F)F)cc4)cc3)CC1)cn2C(C)C

Data returned:
260
610
1220
1070
730

Hey, quick one: what's IC50 for each of these?
1. Cn1c(=N)n(CC(=O)N2CCc3ccc(Cl)cc3C2Cc2ccc(Cl)c(Cl)c2)c2ccccc21 (centres undefined)
2. NC(N)=Nc1nccc(NCc2ccccc2)n1
3. COc1cc(CNc2ncc(-c3ccsc3)c(-c3nccs3)n2)cc(OC)c1
4. CCOc1cc(CNCCCCCCNCc2cc(OCC)c(OCC)c3ccccc23)c2ccccc2c1OCC
5. Cc1cc(CN2CCC(N3CC(c4ccccc4)(c4ccccc4)OCC3=O)C2)ccc1O (centres undefined)
6. COc1ccc2nc(N(CCCn3ccnc3)C(=O)C=Cc3cccs3)sc2c1
7. COc1ccc(N2CCN(CCCCNC(=O)c3ccc(NC(=O)c4cccc(Cl)c4)cc3)CC2)c(OC)c1

Data returned:
[870, 890, 130, 280, 1080, 1050, 910]

* * *

Tested on: P. falciparum 3D7 growth, pLDH absorbance
Experiment: blood-stage malaria parasite growth potency – strain 3D7, dose response (AID 2305)
PROPERTY NAME: IC50 (µM)
Answers are plain numbers, in µM.

Summary: "Cc1nn(CC(C)C)c2sc(C(=O)N3CCN(S(=O)(=O)c4ccc(C#N)cc4)CC3)cc12" , P. falciparum 3D7 growth, pLDH absorbance, IC50 = 0.74

For each listed entry, give its IC50.
1. Cc1nc2nc(N)nc(N)c2c(C)c1Cc1ccc(C(N)=O)cc1
2. COc1ccc2nccc(NN=Cc3ccc(F)cc3)c2c1

Data returned:
1. 0.53
2. 0.72

Could you tell me IC50 for each of these molecules? They are listed below.
1. CC(C)NCc1ccc(-c2cccc(-c3nc4ccccc4[nH]3)c2)cc1
2. O=C(/C=C/c1cccc2c1OCO2)Nc1ccnc2ccncc12

Data returned:
[0.23, 0.9]

# batch: return IC50 for each of the 2 molecules below
1. CCOC(=O)c1ccc(NC(=O)N[C@H]2CCN(CCCCCNC(=O)/C=C/c3ccc(Cl)c(Cl)c3)C2)cc1
2. N#CCCN1CCN(Cc2ccc(-c3cccc(-c4nc5ccc(F)cc5[nH]4)c3)cc2)CC1

Data returned:
1: 0.74; 2: 0.97

* * *

System: P. falciparum 3D7 growth, pLDH absorbance
Experiment: blood-stage malaria parasite growth potency – strain 3D7, dose response (AID 2305)
Provide the reported IC50 of each item.
Numbers only, in nM.

Before answering, review these 4 worked examples.
Kindly note the recorded IC50 for "O=C(/C=C/c1ccc(Cl)c(Cl)c1)NCCCCCN1CCN(C(=O)Nc2ccc(OC(F)F)cc2)CC1" , which is 950

The recorded IC50 for "CCCN(CCC)S(=O)(=O)c1ccc(C(=O)N2CCC(C(=O)OCC)CC2)cc1" is 800

// sample "NC(=O)C1CCN(Cc2cccc(-c3ccc(-c4nc5ccc(C(F)(F)F)cc5[nH]4)cc3)c2)CC1" , its IC50 was 610

For this molecule ( "CCC(=Cc1cccc([N+](=O)[O-])c1)C(=O)NCC1CCN(c2nc(N)c3cc(OC)c(OC)cc3n2)CC1" ), measured IC50 is 240

Could you now consider this next molecule?
So, "CC1(C)Cc2c([nH]c3ccccc23)C(CCCCCCCCC2=NC(C)(C)Cc3c2[nH]c2ccccc32)=N1" ? Its IC50 was 930

* * *

Kindly supply the reported IC50 values for the records listed here.
Tested on: P. falciparum 3D7 growth, pLDH absorbance
Assay: blood-stage malaria parasite growth potency – strain 3D7, dose response (AID 2305)
Answers are plain numbers, in nM.

Input "CS(=O)(=O)N(c1cccc(F)c1)c1cc(C(=O)N[C@@H](Cc2ccccc2)[C@H](O)CNCc2cccc(C(F)(F)F)c2)cc(N2CCCC2=O)c1" . Output IC50: 910

IC50 in this record for "COc1ccc(CCNc2ccnc3cc(Cl)ccc23)cc1OC" : 890

So, "COc1ccc(NC(=O)/C=C/c2ccccc2Cl)cc1OCCN1CCC(Cc2cc3ccccc3[nH]2)CC1" ? Its IC50 was 900

Lab note: "CC(=O)Nc1cccc(C(=O)Nc2cccc(-c3ccc(-c4nc5ccc(F)cc5[nH]4)s3)c2)c1" gave IC50 of 900

Continue with the next compound.
response.value for "Cc1ccc(Nc2nc(C)cc(Nc3cccc(NS(C)(=O)=O)c3)n2)cc1" (field: IC50) = 920

* * *

Tested on: P. falciparum 3D7 growth, pLDH absorbance
Experiment: blood-stage malaria parasite growth potency – strain 3D7, dose response (AID 2305)
Provide the recorded pIC50 for the entries that follow.
Numbers only, as −log10 of the molar value.

The molecule "COc1ccc(CN(C)CCOc2ccc(NC(=O)c3cccc4c(=O)c5cc(SC)ccc5[nH]c34)cc2)cc1OC" showed pIC50 equal to 6.06

"O=S(=O)(NCCN1CCCC1)c1ccc(-c2ccc(CN3Cc4ccccc4C3)cc2)s1" has a reported pIC50 of 6.03

Sure, the documented pIC50 for "O=C(C=Cc1ccc([N+](=O)[O-])cc1)N1CCC(CCN2CCC(c3c[nH]c4ccccc34)CC2)CC1" is 6.13

Notebook: "Cc1nc(C)c(-c2ccc(Oc3ccc(OC(F)(F)F)cc3)cc2)c(OC(=O)N(CCNC(C)C)C(C)C)c1Br" , pIC50 read as 6.77

Value of measured pIC50 for the entry "COc1ccc(NC(=O)[C@H](Cc2ccccc2)Nc2cc(C)nc(NCc3ccccc3C)n2)cc1" : 6.10

Provide the reported pIC50 of each entry below, same order.
1. Fc1ccc([C@H]2N=C(SCCSC3=N[C@H](c4ccc(F)cc4)[C@H](c4ccc(F)cc4)N3)N[C@H]2c2ccc(F)cc2)cc1
2. NC(N)=NC(=O)Nc1cc(Cl)c(Cl)c(Br)c1

Data returned:
[6.04, 6.21]

The following molecules each have a reported value; give each one's pIC50.
1. CNCCCn1c(N(C)C)nc2cc(-n3cnc4cc(-c5ccc(Cl)cc5)sc4c3=O)ccc21
2. CC(C)(C)c1ccc(NC(=O)c2cccc(CN3CCN(Cc4cccc(O)c4)CC3)c2)cc1
3. CCN(CC)CCN(Cc1ccc(-c2ccc(C(F)(F)F)cc2)cc1)C(=O)Cn1c(CCc2cccc(F)c2F)cc(=O)c2c1CCCC2
4. COc1ccc(-n2nc(C)c3c2NC(=O)CC3c2ccccc2OCc2ccc(F)cc2)cc1 (stereo not given)
5. O=C(/C=C/c1cccc(C(F)(F)F)c1)NCCCCCN1CCN(C(=O)Nc2ccc(Cl)c(Cl)c2)CC1
6. C=CCNC(CCCCC)c1ccc(OCCOc2ccc(C(CCCCC)NCC=C)cc2)cc1 (stereo not given)

Data returned:
[5.94, 5.85, 6.06, 6.07, 6.03, 6.24]

Could you tell me pIC50 for each of these molecules? They are listed below.
1. Oc1cccc(CNCCCN(Cc2ccccc2)c2ccccc2)c1
2. CNC(=O)Cc1ccc(C(=O)Nc2cccc(-c3cccc(-c4nc5c(C)cccc5[nH]4)c3)c2)cc1

Data returned:
1: 6.22; 2: 6.28
